- ASSAY_DETAILS: Oral bioavailability in cynomolgus monkey
- Type: ADME, organism-based, Macaca fascicularis
- EXPERIMENTAL_CONTEXT: in vivo
OBSERVABLE: bioavailability (%)
Give bare numbers, in %.

QUERY: Tell me bioavailability reported for `CC(C)(C)c1cc(NC(=O)N2CCCN(C(=O)C3CCOCC3)CC2)no1`
RESULT: 3

###

- ASSAY_DETAILS: Permeability from apical to basolateral side of human Caco2 cells at 10 uM after […] by HPLC-MS/MS analysis
- Assay type: ADME, cell-based
- EXPERIMENTAL_CONTEXT: Caco-2, read-out: permeability
Task for the reader: assign each of the following compounds its reported Papp A→B at […], 10 µM.
One number for each entry, in ×10⁻⁶ cm/s.

O=C(C1CCOCC1)N1CCCN(c2nc(C(F)(F)F)c(Cl)s2)CC1 ... 53
CC(C)(C)c1ccc2oc(N3CCCN(C(=O)C4CCOCC4)CC3)nc2c1 ... 49
O=C(C1CCOCC1)N1CCCN(c2nc(-c3ccccc3)ns2)CC1 ... 67
CC(C)(C)c1cc(NC(=O)N2CCCN(C(=O)C3CCOCC3)CC2)no1 ... 7

Pending compound:
QUERY: Tell me Papp A→B at […], 10 µM reported for `O=C(C1CCOCC1)N1CCCN(c2nc3ccc(Cl)cc3s2)CC1`
RESULT: 62

The origin of these recorded values is ChEMBL document CHEMBL1800049.
